From: patent US10266526B2

IC50 by entry:
biological target: SMYD3 (Homo sapiens (Human)); test: SMYD3 biochemical assay (SMYD3 enzyme assay on MEKK2 protein substrate, 3H-SAM scintillation proximity assay); conditions: read-out: SMYD3 Biochem IC50 (μM)*

These recorded examples may help you get a feel for the data.
{"COMPOUND": "NCCC(=O)N[C@H]1CC[C@H](NC(=O)c2ccncc2)CC1 [compound 139]", "TEST TARGET": "SMYD3 (Homo sapiens (Human))", "IC50": "> 100 µM"}
{"COMPOUND": "CCS(=O)(=O)C(C)C(=O)N[C@H]1CC[C@H](N)CC1 (stereo partly drawn) [compound 78]", "TEST TARGET": "SMYD3 (Homo sapiens (Human))", "IC50": "35.2 µM"}

Endpoint output: IC50 of CS(=O)(=O)c1cccc(C(=O)N[C@H]2CC[C@H](NC(=O)CCN)CC2)c1 [compound 150] . Value?
> 100 µM

Ok, now CC(NC(=O)c1ccc2c(c1)NC(=O)CC2)C1CCN(C(=O)[C@H](C)N)CC1 (stereo partly drawn) [compound 92]
50 µM

Ok, now N[C@H]1CC[C@H](NC(=O)c2n[nH]c3ccccc23)CC1 [compound 172]
> 100 µM

Ok, now CC(NC(=O)c1cccc(S(C)(=O)=O)c1)C1CCN(C(=O)[C@H](C)N)CC1 (stereo partly drawn) [compound 149]
> 100 µM

###

Molecular target: SMYD3 (Homo sapiens (Human), UniProt Q9H7B4)
Sequence (Q9H7B4 whole entry): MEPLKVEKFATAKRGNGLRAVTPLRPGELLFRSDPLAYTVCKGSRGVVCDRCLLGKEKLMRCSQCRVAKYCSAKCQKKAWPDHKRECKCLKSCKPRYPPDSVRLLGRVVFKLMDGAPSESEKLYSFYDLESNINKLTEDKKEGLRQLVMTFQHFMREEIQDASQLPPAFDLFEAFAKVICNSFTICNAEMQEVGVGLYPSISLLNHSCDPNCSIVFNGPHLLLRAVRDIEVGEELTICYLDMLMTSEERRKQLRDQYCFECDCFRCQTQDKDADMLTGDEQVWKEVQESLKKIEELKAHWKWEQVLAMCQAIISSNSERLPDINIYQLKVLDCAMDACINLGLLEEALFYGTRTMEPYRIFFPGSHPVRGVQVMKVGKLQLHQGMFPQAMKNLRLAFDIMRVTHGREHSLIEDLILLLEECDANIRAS
Assay: SMYD3 biochemical assay (SMYD3 enzyme assay on MEKK2 protein substrate, 3H-SAM scintillation proximity assay)
Conditions: read-out: SMYD3 Biochem IC50
Source text: S-adenosylmethionine (SAM), S-adenosylhomocysteine (SAH), Tris, Tween20, dimethylsulfoxide (DMSO), bovine skin gelatin (BSG), and Tris(2-carboxyethyl)phosphine hydrochloride solution (TCEP) were purchased from Sigma-Aldrich at the highest level of purity possible. ^3H-SAM was purchase from American Radiolabeled Chemicals with a specific activity of 80 Ci/mmol. 384-well opaque white OptiPlates and SPA beads (Perkin Elmer, catalog # RPNQ0013) were purchased from PerkinElmer. […]
TEST READOUT: IC50 (µM)

{"MOLECULE": "Cc1nc2ccccc2c(C(=O)NC(C)C2CCN(C(=O)[C@H](C)N)CC2)c1N (stereo partly shown)", "IC50 (µM)": 31.6}

P. CC(NC(=O)c1ccc2nccc(N)c2c1)C1CCN(C(=O)[C@H](C)N)CC1 (stereo partly shown)
Q. NCCC(=O)N[C@H]1CC[C@H](NC(=O)c2cccnc2O)CC1
Of the two listed items, P and Q , which carries the larger IC50 figure? Output the label that corresponds to your choice.
Q
(Q: 44.5 µM, P: 15.2 µM)

###

target: UniProt:Q9NRG4; test: SMYD2 biochemical assay (SMYD2 enzyme assay on peptide substrate, 3H-SAM Flashplate); settings: read-out: SMYD2 Biochem IC50; IC50 values are an average of n = 1 to n = 50
pIC50: −log10 of the molar value.
TEST READOUT: pIC50

These recorded examples may help you get a feel for the data.
{"COMPOUND": "CCC(c1cccc(F)c1)N1CC(NC(=O)c2cn(C3CC3)nn2)C1 (stereo not shown) [compound 711]", "TEST VALUE": 6.00}
{"COMPOUND": "O=C(NC1CN(CCc2ccccc2)C1)c1cn(C2CC2)nn1 [compound 673]", "TEST VALUE": 5.81}
{"COMPOUND": "CC(c1c(F)cccc1F)N1CC(NC(=O)c2cn(C3CC3)nn2)C1 (stereo not shown) [compound 742]", "TEST VALUE": 5.55}
{"COMPOUND": "COCCCN1CC(NC(=O)c2cn(C3CC3)nn2)C1 [compound 686]", "TEST VALUE": 5.42}
{"COMPOUND": "COc1cccc(C(C)N2CC(NC(=O)c3cc(C4CC4)ccn3)C2)c1OC (stereo not shown) [compound 1005]", "TEST VALUE": 6.89}
{"COMPOUND": "O=C(NC1CN(Cc2cnn(Cc3ccc4scnc4c3)c2)C1)c1cn(C2CC2)nn1 [compound 936]", "TEST VALUE": 7.10}

a. CC(c1ccc(OCCc2ccccc2)cc1)N1CC(NC(=O)c2cn(C3CC3)nn2)C1 (stereo not shown) [compound 853]
b. CC(c1cc(Cl)ccc1OC(F)F)N1CC(NC(=O)c2cn(C3CC3)nn2)C1 (stereo not shown) [compound 970]
c. CC(c1ccc(NCc2ccccc2)cc1)N1CC(NC(=O)c2cn(C3CC3)nn2)C1 (stereo not shown) [compound 862]
Ordering: ascending pIC50. List the labels, following the order given in the request.
b, a, c

###

target: SMYD3 (Homo sapiens (Human), UniProt Q9H7B4); assay: SMYD3 biochemical assay (SMYD3 enzyme assay on MEKK2 protein substrate, 3H-SAM scintillation proximity assay); conditions: Table 3A; average of n = 1 to n = 50; read-out: SMYD3 Biochem IC50
Counter-ions that a name gives are not always drawn.
IC50 by entry:
Give the value in µM but do not write µM after it.

These recorded examples may help you get a feel for the data.
{"COMPOUND": "NC1CCN(S(=O)(=O)N2[C@@H]3CC[C@H]2C[C@@H](NC(=O)c2ccc4c(c2)OC(F)(F)O4)C3)CC1", "TEST READOUT": "IC50", "VALUE UNITS": "µM", "TEST VALUE": 0.222}
{"COMPOUND": "CNC1CCN(S(=O)(=O)N2[C@@H]3CC[C@H]2C[C@@H](NC(=O)c2cc4c(cc2Cl)NC(=O)C4)C3)CC1", "TEST READOUT": "IC50", "VALUE UNITS": "µM", "TEST VALUE": 0.00189}
{"COMPOUND": "O=C(N[C@H]1C[C@H]2CC[C@@H](C1)N2S(=O)(=O)CC1CCNCC1)c1ccc2[nH]c(=O)oc2c1 [Cpd. No. 601, Hydrochloride]", "TEST READOUT": "IC50", "VALUE UNITS": "µM", "TEST VALUE": 0.00521}
{"COMPOUND": "NC1CCN(S(=O)(=O)N2[C@@H]3CC[C@H]2C[C@@H](NC(=O)c2cnn(C4CC4)c2)C3)CC1", "TEST READOUT": "IC50", "VALUE UNITS": "µM", "TEST VALUE": 0.839}

Field: next compound
Endpoint output: IC50 of CCc1cc(C(=O)N[C@H]2C[C@H]3CC[C@@H](C2)N3S(=O)(=O)N2CCC(N)CC2)ns1 [Cpd. No. 610, Hydrochloride] . Value?
0.0238

###

target: SMYD2 (Homo sapiens (Human), UniProt Q9NRG4); assay: SMYD2 biochemical assay (SMYD2 enzyme assay on peptide substrate, 3H-SAM Flashplate); conditions: read-out: SMYD2 Biochem IC50; IC50 values are an average of n = 1 to n = 50
Sequence (Q9NRG4 whole entry): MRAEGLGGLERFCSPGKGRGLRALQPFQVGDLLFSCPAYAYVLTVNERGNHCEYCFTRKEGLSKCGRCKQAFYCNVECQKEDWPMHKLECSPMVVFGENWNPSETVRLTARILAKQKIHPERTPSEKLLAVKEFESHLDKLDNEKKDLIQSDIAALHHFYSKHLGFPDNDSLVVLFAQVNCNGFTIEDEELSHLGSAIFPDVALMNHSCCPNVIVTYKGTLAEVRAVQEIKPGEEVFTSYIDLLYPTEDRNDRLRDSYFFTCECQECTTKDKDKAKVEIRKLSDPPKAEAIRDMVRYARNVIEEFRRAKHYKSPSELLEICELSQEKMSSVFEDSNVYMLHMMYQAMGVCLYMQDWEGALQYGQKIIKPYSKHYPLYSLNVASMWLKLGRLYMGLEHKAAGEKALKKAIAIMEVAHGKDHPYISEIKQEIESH
pIC50: −log10 of the molar value.
TEST READOUT: pIC50

These recorded examples may help you get a feel for the data.
{"COMPOUND": "CC(O)COc1cccc(C(C)N2CC(NC(=O)c3cn(C4CC4)nn3)C2)c1Cl (centres unmarked)", "TEST TARGET": "SMYD2 (Homo sapiens (Human), UniProt Q9NRG4)", "TEST READOUT": "pIC50", "TEST VALUE": 5.96}
{"COMPOUND": "CC(c1ccc(OCC(F)(F)F)cc1)N1CC(NC(=O)c2cn(C3CC3)nn2)C1 (centres unmarked)", "TEST TARGET": "SMYD2 (Homo sapiens (Human), UniProt Q9NRG4)", "TEST READOUT": "pIC50", "TEST VALUE": 5.77}
{"COMPOUND": "Cn1cc(CN2CC(NC(=O)c3cn(C4CC4)nn3)C2)c(Cl)n1", "TEST TARGET": "SMYD2 (Homo sapiens (Human), UniProt Q9NRG4)", "TEST READOUT": "pIC50", "TEST VALUE": 5.91}

A. O=C(NC1CN(Cc2cnn(Cc3ccccc3)c2)C1)c1cc(C2CC2)on1
B. COc1cc(F)ccc1C(C)N1CC(NC(=O)c2cn(C3CC3)nn2)C1 (centres unmarked)
Which has the smaller recorded pIC50, A or B ? Output the label that corresponds to your choice.
B
(B: 5.72, A: 7.14)

###

target: SMYD3 (Homo sapiens (Human)); assay: SMYD3 biochemical assay (SMYD3 enzyme assay on MEKK2 protein substrate, 3H-SAM scintillation proximity assay); details: read-out: SMYD3 Biochem IC50
Counter-ions that a name gives are not always drawn.
IC50 by entry:

Endpoint output: IC50 of CC(NC(=O)c1cncnc1O)C1CCN(C(=O)[C@H](C)N)CC1 (some centres unmarked) [compound 509] . Value?
> 50 µM

Ok, now NCCC(=O)N[C@H]1CC[C@H](NC(=O)c2ccc(N3CCCC3)cc2)CC1 [compound 279]
43.6 µM

Ok, now NC(=O)Cn1cc(C(=O)N[C@H]2CC[C@H](N)CC2)nn1 [compound 501]
50 µM

Ok, now NCCC(=O)N[C@H]1CC[C@H](NC(=O)c2ccnc(N)c2)CC1 [compound 321]
16.6 µM

Ok, now CC(NC(=O)c1ccn(C)n1)C1CCN(C(=O)[C@H](C)N)CC1 (some centres unmarked) [compound 259]
> 100 µM

Ok, now COc1cccc2[nH]cc(C(=O)NC(C)C3CCN(C(=O)[C@H](C)N)CC3)c12 (some centres unmarked) [compound 370]
> 100 µM

Ok, now N[C@H]1CC[C@H](NC(=O)c2c[nH]cn2)CC1 [compound 521]
> 50 µM

Ok, now N[C@H]1CC[C@H](NC(=O)c2cc3c(cc2Cl)NC(=O)C3)CC1 [compound 492]
1.59 µM

Ok, now CC(NC(=O)c1ccc(-n2cncn2)cc1)C1CCN(C(=O)[C@H](C)N)CC1 (some centres unmarked) [compound 472]
> 100 µM

Ok, now Cc1cnc(C(=O)N[C@H]2CC[C@H](N)CC2)cn1 [compound 186]
> 100 µM

Ok, now NCCC(=O)N[C@H]1CC[C@H](NC(=O)c2nc3ccccc3s2)CC1 [compound 427]
> 100 µM

Ok, now Cc1cc(C)c(C(=O)N[C@H]2CC[C@H](NC(=O)CCN)CC2)c(=O)[nH]1 [compound 402]
> 100 µM

Ok, now NCCC(=O)N[C@H]1CC[C@H](NC(=O)c2c[nH]c3ccccc23)CC1 [compound 391]
> 100 µM

Ok, now N[C@H]1CC[C@H](NC(=O)c2ccc3c(c2)CCCC3)CC1 [compound 204]
47.4 µM

Ok, now Cn1ncc2ccc(C(=O)N[C@H]3CC[C@H](NC(=O)CCN)CC3)cc21 [compound 325]
> 100 µM

Ok, now CC(C)(CNC(=O)CN)CNS(=O)(=O)c1ccc2c(c1)CC(=O)N2 [compound 486]
18.8 µM

Ok, now Nc1ccc(C(=O)N[C@H]2CC[C@H](N)CC2)nc1 [compound 438]
> 100 µM

Ok, now N[C@H]1CC[C@H](C(=O)Nc2ccc3c(c2)CC(=O)N3)CC1 [compound 428]
30.6 µM

Ok, now Cc1cnc(C(=O)N[C@H]2CC[C@H](NC(=O)CCN)CC2)cn1 [compound 215]
> 100 µM

Ok, now N[C@H]1CC[C@H](NC(=O)c2cc[n+]([O-])cc2)CC1 [compound 210]
> 100 µM

Ok, now CCc1cc(C(=O)N[C@H]2CCN(S(=O)(=O)N3CCC(N)CC3)[C@@H](C)C2)ns1 [compound 605, Hydrochloride]
0.0154 µM

Ok, now N[C@H]1CC[C@H](NC(=O)c2cnc3ccccc3n2)CC1 [compound 405]
> 100 µM
